Header: IC50 / ATPase family AAA domain-containing protein 2 (Homo sapiens) / multiple publications
TARGET_OR_SYSTEM: ATPase family AAA domain-containing protein 2 (Homo sapiens)
Sequence (Q6PL18 whole entry): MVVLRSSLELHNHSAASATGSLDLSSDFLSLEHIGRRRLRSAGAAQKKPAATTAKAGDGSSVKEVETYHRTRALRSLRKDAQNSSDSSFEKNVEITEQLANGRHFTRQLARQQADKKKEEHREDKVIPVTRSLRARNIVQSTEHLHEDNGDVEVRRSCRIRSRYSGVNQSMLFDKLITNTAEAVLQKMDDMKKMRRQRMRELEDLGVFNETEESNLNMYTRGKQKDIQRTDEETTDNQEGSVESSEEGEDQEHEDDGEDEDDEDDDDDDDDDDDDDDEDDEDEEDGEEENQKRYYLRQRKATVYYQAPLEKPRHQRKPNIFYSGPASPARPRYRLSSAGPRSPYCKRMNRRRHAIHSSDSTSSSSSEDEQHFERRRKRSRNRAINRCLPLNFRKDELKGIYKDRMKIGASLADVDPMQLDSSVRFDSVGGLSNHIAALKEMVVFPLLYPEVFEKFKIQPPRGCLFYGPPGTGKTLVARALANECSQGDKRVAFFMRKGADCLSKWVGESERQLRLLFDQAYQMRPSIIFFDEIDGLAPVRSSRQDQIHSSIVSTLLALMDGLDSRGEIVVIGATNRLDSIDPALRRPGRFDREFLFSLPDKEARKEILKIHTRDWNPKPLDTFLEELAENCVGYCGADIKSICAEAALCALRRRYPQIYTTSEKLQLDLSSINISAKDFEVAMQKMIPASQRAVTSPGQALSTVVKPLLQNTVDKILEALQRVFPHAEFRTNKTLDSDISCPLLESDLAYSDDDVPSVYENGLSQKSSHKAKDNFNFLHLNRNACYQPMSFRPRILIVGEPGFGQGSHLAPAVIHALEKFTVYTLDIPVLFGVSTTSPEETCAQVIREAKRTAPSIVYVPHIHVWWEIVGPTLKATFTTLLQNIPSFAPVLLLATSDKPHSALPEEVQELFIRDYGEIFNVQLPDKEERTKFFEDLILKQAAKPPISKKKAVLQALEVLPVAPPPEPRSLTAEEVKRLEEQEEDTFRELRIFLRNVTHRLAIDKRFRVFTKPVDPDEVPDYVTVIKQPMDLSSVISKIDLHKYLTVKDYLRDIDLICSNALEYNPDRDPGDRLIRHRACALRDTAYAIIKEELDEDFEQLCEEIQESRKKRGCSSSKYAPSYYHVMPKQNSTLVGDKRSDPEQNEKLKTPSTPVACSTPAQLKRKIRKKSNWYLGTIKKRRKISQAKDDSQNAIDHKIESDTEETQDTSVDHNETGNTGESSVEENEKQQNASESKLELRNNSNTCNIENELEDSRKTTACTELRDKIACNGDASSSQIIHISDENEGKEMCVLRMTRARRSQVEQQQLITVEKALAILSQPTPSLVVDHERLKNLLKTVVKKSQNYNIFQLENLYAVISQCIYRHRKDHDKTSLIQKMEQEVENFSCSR

* O=C(CN1C(=O)CNC1=O)Nc1ccc(Cl)c(S(=O)(=O)C2CCCCC2)c1 | > 100 µM
* Cc1cc2ccnc(N[C@@H]3CCNC[C@H]3C(=O)NC3CCCC3)c2[nH]c1=O (relative stereo) | > 39.8 µM

Lab note: next compound to report on.
Field request: IC50 | item: `CCCCc1c(C)nc2nc(SCc3nc4c(c(=O)[nH]c(=O)n4CCCC)n3CC)nn2c1C` > 100 µM
